# PROTOCOL_DESCRIPTION: Part C single-dose drug-drug interaction plasma PK in healthy subjects
# CONDITION_NOTES: human, in vivo, Cmax, part C cohort 14, IMI-CIL 0.5 g alone, day 3
RECORDED_ENDPOINT: Cmax
Include the unit right after the number.

The compound listed as CC1(C)C[C@@H]1C(=O)N/C(=C\CCCCSC[C@H](N)C(=O)O)C(=O)O [CIL, cilastatin] shows Cmax equal to 46000 ng/mL

* * *

# PROTOCOL_DESCRIPTION: Part C single-dose drug-drug interaction plasma PK in healthy subjects
# CONDITION_NOTES: human, in vivo, Cmax, part C cohort 14, SUL 1 g + IMI-CIL 0.5 g, day 8
RECORDED_ENDPOINT: Cmax (ng/mL)
// units = ng/mL; emit number, no label

Entry CC1(C)[C@H](C(=O)O)N2C(=O)C[C@H]2S1(=O)=O , Cmax reported as 24000

* * *

# PROTOCOL_DESCRIPTION: Part B multiple-ascending-dose plasma PK in healthy subjects
# Format: in vivo, human
# CONDITION_NOTES: human, plasma, iv, 2 g, part B cohort 12, 2.0 g q6h 3-h i.v. infusion, day 1; read-out: AUC0–tau
# Experimental: This was a 4-part, double-blind, placebo-controlled study (15 cohorts) of DUR administered as a 3-h i.v. infusion (except for cohort 4, in which a 2-h i.v. infusion was evaluated) (see Table S5 in the supplemental material). […] AUC was calculated using the log-linear trapezoidal rule. […]
RECORDED_ENDPOINT: AUC (µg·h/mL)
Form entry: value (µg·h/mL) — number only.

AUC in this record for CC1=C[C@@H]2CN(C(=O)N2OS(=O)(=O)O)[C@@H]1C(N)=O [DUR, Durlobactam] : 179

* * *

# PROTOCOL_DESCRIPTION: Part C single-dose drug-drug interaction plasma PK in healthy subjects
# CONDITION_NOTES: human, in vivo, Vss, part C cohort 14, DUR 1 g + IMI-CIL 0.5 g + SUL 1 g, day 8
Below is a list of entries, each paired with its recorded Vd value.
Enter your answer as a number in L; do not include the unit.

response.value for CC1(C)C[C@@H]1C(=O)N/C(=C\CCCCSC[C@H](N)C(=O)O)C(=O)O (field: Vd) = 10.4

Lab book: Vd of CC1(C)[C@H](C(=O)O)N2C(=O)C[C@H]2S1(=O)=O noted as 15.2

* * *

# PROTOCOL_DESCRIPTION: Part B multiple-ascending-dose plasma PK in healthy subjects
# Assay type: in vivo, human
# CONDITION_NOTES: human, plasma, iv, 0.5 g, part B cohort 10 (4 subjects), 0.5 g q6h 3-h i.v. infusion, day 8
RECORDED_ENDPOINT: Cmax (ng/mL)
Form entry: value (ng/mL) — number only.

Entry CC1=C[C@@H]2CN(C(=O)N2OS(=O)(=O)O)[C@@H]1C(N)=O — recorded Cmax = 14800

* * *

# PROTOCOL_DESCRIPTION: Part C single-dose drug-drug interaction plasma PK in healthy subjects
# CONDITION_NOTES: human, in vivo, 1 g
# Method: The blank control matrix was made up of human plasma (BioreclamationIVT) diluted 1:1 with SigmaFast (reconstituted protease inhibitor cocktail tablet [product S8820; Sigma-Aldrich, St. Louis, MO] in 10 ml of water) for preparation of calibration standards and QC samples. […] A 100-μl aliquot of the supernatant was transferred to 96-well plates. […] AUC was calculated using the log-linear trapezoidal rule. […]
RECORDED_ENDPOINT: half-life (h)
Record the value in h, omitting the unit from your answer.

Reported half-life for CC1(C)[C@H](C(=O)O)N2C(=O)C[C@H]2S1(=O)=O was 1.3
